Would you mind telling me the reported MIC A. baumannii ATCC 19606 of each entry?
Tested on: Acinetobacter baumannii ATCC 19606
Assay type: cell-based
condition.label: ATCC 19606
Procedure: The minimum inhibitory concentration (MIC) was determined by means of dish double dilution method using a Multipoint inoculator according to the CLSI recommended method. […] Agar medium is melted, and then quantitatively injected into the dish containing the drug solution, and mixed. […]
Where a SMILES comes first, the peptide text is derived from it. Bridges are numbered along the chain shown (N, C = ends). [ ]: non-standard residue; d: D form. The star is where a group is joined. dPhe(4-CN) = N#Cc1ccc(C[C@@H](N)C(=O)O)cc1; Heptanoyl(6-Me) = CC(C)CCCCC(=O)*; X2 = CC[C@H](C)CCCCC(=O)*; Dab = NCC[C@H](N)C(=O)O
The response must be a number in µg/mL with no trailing unit.

Data request: // fetch Acinetobacter baumannii ATCC 19606 MIC A. baumannii ATCC 19606 for CC(C)CCCCC(=O)N[C@@H](CCN)C(=O)N[C@H](C(=O)N[C@@H](CCN)C(=O)N[C@H]1CCNC(=O)[C@H](CC(C)C)NC(=O)[C@H](CCN)NC(=O)[C@H](CCN)NC(=O)[C@H](CC(C)C)NC(=O)[C@@H](Cc2ccccc2)NC(=O)[C@H](CCN)NC1=O)[C@@H](C)O [Compound 128] ({Heptanoyl(6-Me)}-[Dab]T[Dab][Dab][Dab][dF]L[Dab][Dab]L; lactam 4-C)
Data returned: 4

Data request: Item: CC[C@H](C)CCCCC(=O)N[C@@H](CCN)C(=O)N[C@H](C(=O)N[C@@H](CCN)C(=O)N[C@H]1CCNC(=O)[C@H]([C@@H](C)O)NC(=O)[C@H](CCN)NC(=O)[C@H](CCN)NC(=O)[C@H](CC(C)C)NC(=O)[C@@H](Cc2ccc(C#N)cc2)NC(=O)[C@H](CCN)NC1=O)[C@@H](C)O [Compound 13] (X2-[Dab]T[Dab][Dab][Dab][dPhe(4-CN)]L[Dab][Dab]T; lactam 4-C) Test system: Acinetobacter baumannii ATCC 19606 Read-out: MIC A. baumannii ATCC 19606 Value: ?
Data returned: 0.25
